Give inhibition for every item shown.
assay: blockers of RIG-like receptor reporter activation – cell-based, Sendai virus stimulus, luciferase, 10K MLSCN set, TLR/RLR signaling modifier project, primary screen (AID 602276); settings: HEK293 RL24 IRF3 luciferase reporter, at 10 µM, hits give high values;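 note: firefly luciferase from ISG56 promoter only with Renilla not read in this screen; 0% = Sendai virus plus DMSO and 100% = medium plus DMSO without virus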
Where a SMILES comes first, the peptide text is derived from it. The star is where a group is joined. Boc = CC(C)(C)OC(=O)*
Respond numerically; units are % and should not be typed.

**Q:** For CCn1c(=O)cc(SCC(=O)Nc2cccnc2)c2ccccc21 , what is its reported inhibition?
**A:** 2.11

**Q:** Look up inhibition: O=C(Nc1ccc(CN2CCCCC2)cc1)c1ccc2c(c1)OCO2
**A:** -5.51

**Q:** Query (compound): CN(C)c1cccc(N=C2C=C(N3CCOCC3)CC(C)(C)C2)c1 ; field requested: inhibition
**A:** -0.858

**Q:** Need inhibition, item Cc1cc(C)nc(NS(=O)(=O)c2ccc(N)cc2)n1
**A:** 15.1

**Q:** Any idea what its inhibition is? The compound is COc1ccccc1-c1c(C)nn2c(C)c(C(C)=O)cnc12
**A:** 17.1

**Q:** Request the reported inhibition associated with CC1C(c2ccccc2)N(C)CCC12NC(=O)NC2=O (stereo not drawn)
**A:** -0.144

**Q:** Return reported inhibition; argument: Cc1nc(SCC#N)c2c(C)c(C)sc2n1
**A:** 10.7

**Q:** Look at this compound and give its reported inhibition. CCOC(=O)c1c(NC(=O)OC)sc(C(=O)N(C)C)c1C
**A:** 7.2

**Q:** Tell me the measured inhibition of CCOC(=O)C1CCN(C(=O)Nc2ccc3snnc3c2)CC1 , please.
**A:** 13.9

**Q:** Which inhibition reading was recorded for the compound CCOc1ccccc1N1CCN(c2nc(N)c(C#N)c(CC#N)c2C#N)CC1 ?
**A:** 20.4

**Q:** Quick one: inhibition of CCn1cc(/C=C(/C#N)S(=O)(=O)c2ccccc2)cn1 ?
**A:** -4.56

**Q:** Suppose we examine the compound CCOC(=O)CC(NS(=O)(=O)c1ccc(NC(C)=O)cc1)c1ccc(OCC)cc1 (stereo not drawn) ; what inhibition value has been reported?
**A:** 14

**Q:** Reported inhibition, compound O=C(NCCO)c1scc2c1OCCO2 : ____
**A:** 16.6

**Q:** Need inhibition, item COC(=O)c1sc(NC(=O)COc2ccccc2OC)nc1C
**A:** 9.11

**Q:** What measured inhibition goes with Cn1c(=O)c2c(nc(SCC(=O)NCc3ccc4c(c3)OCO4)n2Cc2ccccc2)n(C)c1=O ?
**A:** 12.6

**Q:** Given the entry Cc1c(/C(O)=C2/C(=O)C(=O)N(CCN3CCOCC3)C2c2cccs2)cnn1-c1ccccc1 (stereo not drawn) , report its measured inhibition.
**A:** 2.43

**Q:** Look at this compound and give its reported inhibition. CCn1c(=S)sc2nc(C)sc21
**A:** 13.4

**Q:** Quick one: inhibition of O=c1c(O)c(-c2ccc(O)cc2O)oc2cc(O)cc(O)c12 ?
**A:** 11.8

**Q:** Tell me the measured inhibition of COc1ccccc1S(=O)(=O)n1cc(Cc2ccccc2)c(N)n1 , please.
**A:** 3.66

**Q:** Quick one: inhibition of CC(C)(C)OC(=O)N1CCCC1C(=O)N1CCCC1C(=O)N1CCCC1C(=O)O (stereo not drawn) (Boc-Pro-Pro-Pro-OH; configuration not given here) ?
**A:** 5.97

**Q:** Could you share which inhibition value was measured for C/C(=N\O)c1ccc2c3c([nH]c2c1)CCCC3 ?
**A:** -28

**Q:** Which inhibition value is on record for c1ccc2c(c1)CCCC2C1=NCCN1 (stereo not drawn) ?
**A:** 12.1

**Q:** Fill in the blank: the reported inhibition of NC(=O)c1oc2ccc(Cl)cc2c1NC(=O)CN1CCOCC1 is ____.
**A:** 4.86

----------
experiment: TLR3 IRF3 reporter activation blockers – cell-based, poly I:C stimulus, luciferase, 10K MLSCN set, primary screen (AID 602277); conditions: HEK293-TLR3 RL24 IRF3 luciferase reporter, at 10 µM
Activity calls are given as the source filed them.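 The calls were made as follows: active = inhibition of the reporter signal at or above 50%; inactive = inhibition below 50%.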
Just give me one of these, please: TRUE = active, FALSE = inactive

**Q:** Lab log entry: COc1cc(-c2c(C#N)c(N)nc3c2CCCC3)cc(OC)c1OC — outcome as called in the assay?
**A:** FALSE

**Q:** Outcome logged for Cc1ccccc1OCCN1C(=O)NC2(CCc3ccccc32)C1=O (stereo not drawn) in this assay:
**A:** FALSE

**Q:** What outcome does the record of this test show for CC(C(=O)NC1CCCCCC1)N(c1ccccc1)S(C)(=O)=O (stereo not drawn) ?
**A:** FALSE

**Q:** Please let me know the test result on file for COc1nc2ccc(C)cc2cc1-c1noc(-c2cccnc2)n1 .
**A:** FALSE

**Q:** Hi team, can someone confirm the assay call for CCOC(=O)CNC(=O)C(Cc1ccccc1)NS(=O)(=O)c1ccc2c(c1)CCC(=O)N2 (stereo not drawn) ?
**A:** FALSE

**Q:** Fill in: this test's call for CC(=O)N1CCc2cc(S(=O)(=O)CCC(=O)N3CCN(C(=O)c4ccco4)CC3)ccc21 is ___
**A:** FALSE

**Q:** // outcome(item) with item = CC(NC(=O)c1ccco1)C(c1cccs1)N1CCN(c2ccc(F)cc2)CC1 (stereo not drawn)
**A:** FALSE

**Q:** Recorded call for Cc1cc2ncn(N)c2cc1C ?
**A:** FALSE

**Q:** In this assay, the call recorded for CCCc1cc(=O)[nH]c(=S)[nH]1 was what?
**A:** FALSE

**Q:** Dear colleague, could you share the recorded outcome for CC(NC(=O)CSc1n[nH]c(=O)n1C1CC1)C12CC3CC(CC(C3)C1)C2 (stereo not drawn) when you have a moment?
**A:** FALSE

**Q:** Entry Cc1cncn1CCc1nc2c3ccccc3nc(=S)n2[nH]1 : call = ?
**A:** FALSE

**Q:** What did the test return for c1csc(-c2nc3nc4ccccc4nc3n2Cc2ccc3c(c2)OCO3)c1 ?
**A:** FALSE

**Q:** Kindly provide the recorded test outcome for the following compound: COCCN(CC(=O)NC1CCCCC1)C(=O)CSc1nc2ccccc2o1
**A:** FALSE

**Q:** Each compound tested received a call. Report the one for COc1ccc(-c2nn(-c3ccccc3)cc2/C=N/n2cnnc2)cc1OC .
**A:** FALSE

**Q:** How was Cc1ccc(Nc2nnns2)cc1C classified in this test?
**A:** FALSE

**Q:** Which result was noted for this compound in the test: CCOC(=O)COc1ccc(S(=O)(=O)N2CCc3ccccc3C2)cc1
**A:** FALSE

**Q:** Please indicate how the test categorized CN(C)Cc1c(O)ccc2oc(Cc3ccccc3)cc12 .
**A:** FALSE

**Q:** Please let me know the test result on file for Cc1ccc(S(=O)(=O)N2CCC(C(=O)N[C@@H](Cc3ccccc3)C(=O)O)CC2)cc1 .
**A:** FALSE

**Q:** Kindly provide the recorded test outcome for the following compound: COc1ccc(-c2[nH]nc3c2C(c2ccccc2OC(=O)N2CCOCC2)C(C#N)=C(N)O3)cc1 (stereo not drawn)
**A:** FALSE

**Q:** State the result this test recorded for COc1cccc2c1C(=O)c1c(O)c3c(c(O)c1C2=O)C[C@@](O)(C(C)=O)C[C@@H]3O[C@H]1C[C@H](N)[C@H](O)[C@H](C)O1 .
**A:** TRUE

**Q:** Dear all, I need the recorded test outcome for CCCCN(C)Cc1c(C)[nH]c2c(Cl)cccc2c1=O , thank you.
**A:** FALSE

**Q:** What is the recorded call for this compound in the test? CN(C)CCOC(C)(c1ccccc1)c1ccccn1 (stereo not drawn)
**A:** FALSE

**Q:** I'd appreciate the recorded outcome for CCn1ncc(C2=NOC(C(=O)N3CCC(C(N)=O)CC3)C2)c1C (stereo not drawn) from this test.
**A:** FALSE

----------
I'd be grateful if you could share measured fluorescence slope for these entries.
biological target: Muscarinic acetylcholine receptor M4 (Homo sapiens) (UniProt P08173); experiment: M4-linked GIRK flux change, two-sided – cell-based, HEK293 M4/GIRK, thallium flux, BTC-AM, M4 allosteric agonist project, primary screen (AID 625); conditions: at 10 µM, actives lie on both sides;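 note: thallium influx through GIRK channels coupled to M4 in HEK293 cells with BTC-AM dye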
Sequence (P08173 whole entry, looked up): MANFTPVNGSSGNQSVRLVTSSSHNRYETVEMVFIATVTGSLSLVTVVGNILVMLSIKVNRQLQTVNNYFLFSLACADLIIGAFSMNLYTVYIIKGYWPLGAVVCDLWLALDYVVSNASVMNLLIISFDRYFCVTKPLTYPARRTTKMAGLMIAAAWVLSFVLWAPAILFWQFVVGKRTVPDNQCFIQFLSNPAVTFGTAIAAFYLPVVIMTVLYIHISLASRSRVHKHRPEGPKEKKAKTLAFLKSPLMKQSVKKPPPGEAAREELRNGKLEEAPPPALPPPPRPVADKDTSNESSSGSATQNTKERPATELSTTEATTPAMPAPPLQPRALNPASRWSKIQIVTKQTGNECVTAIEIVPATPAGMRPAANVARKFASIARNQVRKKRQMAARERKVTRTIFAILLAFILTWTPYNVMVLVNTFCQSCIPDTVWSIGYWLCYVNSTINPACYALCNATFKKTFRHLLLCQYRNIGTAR
Respond with the number and no other words.

**Q:** So what does the record say about fluorescence slope for O=C(Nc1cccc(C(=O)N2CCOCC2)c1)c1cccnc1 ?
**A:** 0.00393

**Q:** // returns reported fluorescence slope for input Cc1ccc(S(=O)(=O)N(C)CC(=O)NC2CCCC2)cc1
**A:** 0.00453

**Q:** I am curious: what fluorescence slope value has been reported for CCC(NC(=O)Nc1nnc(C(F)(F)F)s1)(C(F)(F)F)C(F)(F)F ?
**A:** 0.00231

**Q:** Give its fluorescence slope value. Item: CCOc1cc2[nH]c(=O)n(CCCCC(=O)N3CCCCCC3)c(=O)c2cc1OCC
**A:** 0.00663

**Q:** // query fluorescence slope value for entry COc1ccccc1OC(=O)c1ccc2nsnc2c1
**A:** 0.00471

**Q:** Consider the molecule shown here: CC(=O)Nc1ccc(NC2=CC(=O)CC(C)(C)C2)cc1 What is its recorded fluorescence slope?
**A:** 0.00709

**Q:** For the molecule O=C(c1nc2n(n1)C(c1ccc(Cl)cc1)C=C(c1ccccc1)N2)N1CCOCC1 (stereo unspecified) , what fluorescence slope is on record?
**A:** 0.00624

**Q:** Give its fluorescence slope value. Item: Cc1ccccc1C(=O)NC1CCN(CC(=O)Nc2nccs2)CC1
**A:** 0.00698

**Q:** For COc1c2ccoc2nc2c(OC)c(OCC(O)C(C)(C)O)ccc12 (stereo unspecified) , what is its reported fluorescence slope?
**A:** 0.00374

**Q:** Look at this molecule and give its reported fluorescence slope. CC(NC(=O)CSc1n[nH]c(=O)n1C1CC1)C12CC3CC(CC(C3)C1)C2 (stereo unspecified)
**A:** 0.00652

**Q:** Which fluorescence slope is reported for this molecule? FC(F)(F)COc1nc(N2CCCCC2)nc(N2CCNCC2)n1
**A:** 0.00559
